Biological target: UniProtKB Q8T6T2
Sequence (Q8T6T2 whole entry): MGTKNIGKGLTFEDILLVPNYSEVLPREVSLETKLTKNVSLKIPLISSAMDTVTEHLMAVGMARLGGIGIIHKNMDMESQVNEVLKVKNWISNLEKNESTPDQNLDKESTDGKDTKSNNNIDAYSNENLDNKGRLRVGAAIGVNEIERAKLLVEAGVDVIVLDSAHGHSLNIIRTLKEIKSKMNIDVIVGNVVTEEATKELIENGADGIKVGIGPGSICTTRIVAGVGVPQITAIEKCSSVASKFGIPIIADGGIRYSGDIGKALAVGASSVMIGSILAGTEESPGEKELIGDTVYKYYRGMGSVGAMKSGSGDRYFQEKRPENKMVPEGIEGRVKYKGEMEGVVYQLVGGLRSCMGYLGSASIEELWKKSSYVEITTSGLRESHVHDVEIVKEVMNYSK
Experiment: Inhibition of recombinant Cryptosporidium parvum IMPDH expressed in Escherichia coli assessed as NADH production preincubated for 5 mins by fluorescence assay in presence of bovine serum albumin
Please go through the items and note down their pIC50.
Remember the convention: pIC50 equals -log10 of concentration in molar.

Tell me pIC50 reported for O=C(Cn1c(-c2cscn2)nc2ccccc21)Nc1ccc(Cl)c(Cl)c1 7.05

Indicate the recorded pIC50 value for this compound: CC(C(=O)Nc1ccc(Cl)c(Cl)c1)n1c(-c2cscn2)nc2ccccc21 (centres undefined) 6.52

Give pIC50 for CC(C(=O)Nc1ccc(Cl)cc1)n1c(-c2cscn2)nc2ccccc21 (centres undefined) 7.10

Identify measured pIC50 corresponding to O=C(Cn1c(-c2ccccn2)nc2ccccc21)Nc1ccc(Cl)cc1 7.05

Consider the compound O=C(Cn1c(-c2nccs2)nc2ccccc21)Nc1ccc(Br)cc1 . State its measured pIC50. 7.57

Retrieve pIC50 measured for CSc1ccc(NC(=O)Cn2c(-c3cscn3)nc3ccccc32)cc1 and print it. 7.16

Using known records, supply pIC50 for N#Cc1cc(NC(=O)Cn2c(-c3cscn3)nc3ccccc32)ccc1Cl 7.22

Could you please provide reported pIC50 for O=C(Cn1c(-c2nccs2)nc2ccccc21)Nc1ccc(Cl)c(Cl)c1 ? Thanks! 7.30

Identify the reported pIC50 for the following entry. O=C(Cn1c(-c2cscn2)nc2ccccc21)Nc1ccc2ccccc2c1 7.70

# return recorded pIC50 for input N#Cc1cc(NC(=O)Cn2c(-c3ccccn3)nc3ccccc32)ccc1Cl 7.40

Please report the measured pIC50 for O=C(Cn1c(-c2cccs2)nc2ccccc21)Nc1ccc(Cl)cc1 7.22

// fetch pIC50 given entry O=C(Cn1c(-c2cncs2)nc2ccccc21)Nc1ccc(Cl)cc1 7.22

Supply measured pIC50 of O=C(Cn1c(-c2nccs2)nc2ccccc21)Nc1ccc2ccccc2c1 in your reply. 7.70

Annotate the compound O=C(Cn1c(-c2ncco2)nc2ccccc21)Nc1ccc(Cl)cc1 with its measured pIC50. 6.64

Check the records and state pIC50 for O=C(Cn1c(-c2ccccc2)nc2ccccc21)Nc1ccc(Cl)cc1 6.55

Answer with the recorded pIC50 of O=C(Cn1c(-c2cscn2)nc2ccccc21)Nc1ccc(C(F)(F)F)cc1 only. 6.48

Answer with the recorded pIC50 for the compound listed here: O=C(Cn1c(-c2ccccn2)nc2ccccc21)Nc1ccc(Cl)c(Cl)c1 7.40

Indicate its recorded pIC50; the compound in question is Cn1cc(-c2nc3ccccc3n2CC(=O)Nc2ccc(Cl)cc2)cn1 7.38

Let me know recorded pIC50 for O=C(Cn1c(-c2ccc[nH]2)nc2ccccc21)Nc1ccc(Cl)cc1 , thanks. 6.92

###

Target: Inosine-5'-monophosphate dehydrogenase (Cryptosporidium parvum)
Experiment: Inhibition of recombinant Cryptosporidium parvum IMPDH expressed in Escherichia coli assessed as NADH production preincubated for 5 mins by fluorescence assay
ENDPOINT_LABEL: pIC50
Please note pIC50 is a logarithmic value: minus log10 of concentration in mol/L. Answer with that number alone.

Determine its reported pIC50: Cn1cc(-c2nc3ccccc3n2CC(=O)Nc2ccc(Cl)cc2)cn1 7.46

Return the recorded pIC50 value; entry: N#Cc1cc(NC(=O)Cn2c(-c3ccccn3)nc3ccccc32)ccc1Cl 7.66

Supply reported pIC50 belonging to this compound: O=C(Cn1c(-c2ccccn2)nc2ccccc21)Nc1ccc(Cl)c(Cl)c1 7.66

Return the recorded pIC50 value; entry: CSc1ccc(NC(=O)Cn2c(-c3cscn3)nc3ccccc32)cc1 6.92

Note down pIC50 recorded for O=C(Cn1c(-c2nccs2)nc2ccccc21)Nc1ccc(Br)cc1 7.55

Supply measured pIC50 of O=C(Cn1c(-c2cscn2)nc2ccccc21)Nc1ccc(Cl)c2ccccc12 in your reply. 5.30

Identify measured pIC50 associated with O=C(Cn1c(-c2ccc(F)cc2)nc2ccccc21)Nc1ccc(Cl)cc1 6.06

Identify measured pIC50 associated with N#Cc1ccc(NC(=O)Cn2c(-c3cscn3)nc3ccccc32)cc1 6.43

For O=C(Cn1c(-c2cscn2)nc2ccccc21)Nc1ccc(F)cc1 , write its pIC50. 6.05

Assign pIC50 to the following record: O=C(Cn1c(-c2cscn2)nc2ccccc21)Nc1ccc(C(F)(F)F)cc1 6.66

Assign pIC50 to the following record: CC(C)c1ccc(NC(=O)Cn2c(-c3cscn3)nc3ccccc32)cc1 5.30

Output pIC50 of O=C(Cn1c(-c2ccccn2)nc2ccccc21)Nc1ccc(Cl)cc1 7.37

Dear colleague, please send me the reported pIC50 for O=C(Cn1c(-c2ncco2)nc2ccccc21)Nc1ccc(Cl)cc1 when you can. 6.77
